test system: Malate dehydrogenase and diaphorase; assay: Formation of formazan dyes: Malate dehydrogenase and diaphorase, absence of malate (TABLE 9); format: biochemical, pig heart; settings: Malate dehydrogenase and diaphorase, absence of malate; 10 h
measure-name: Formation of formazan dyes, absorbance, Means 10 h

>  <molecule>
Cc1nc(-[n+]2nc(-c3cccc(OCC(=O)O)c3)nn2-c2ccc(S(=O)(=O)[O-])cc2)sc1C

>  <result>
0.26

$$$$
>  <molecule>
COc1cc([N+](=O)[O-])c(S(=O)(=O)[O-])cc1-n1nc(C(=O)Nc2ccccc2)n[n+]1-c1cc(S(=O)(=O)O)c([N+](=O)[O-])cc1OC

>  <result>
0.58

$$$$
>  <molecule>
O=[N+]([O-])c1ccc(-[n+]2nc(-c3ccc(S(=O)(=O)[O-])cc3S(=O)(=O)[O-])nn2-c2ccc(I)cc2)cc1.[Na+]

>  <result>
1.78

$$$$
>  <molecule>
COc1cc(-c2ccc(-[n+]3nc(-c4ccc(C(=O)N(CCS(=O)(=O)[O-])CCS(=O)(=O)[O-])cc4)nn3-c3nc4ccccc4s3)c(OC)c2)ccc1-[n+]1nc(-c2ccc(C(=O)N(CCS(=O)(=O)[O-])CCS(=O)(=O)[O-])cc2)nn1-c1nc2ccccc2s1.[Na+].[Na+]

>  <result>
2.33

$$$$
>  <molecule>
COc1cc([N+](=O)[O-])ccc1-[n+]1nc(-c2ccc(S(=O)(=O)[O-])cc2S(=O)(=O)[O-])nn1-c1ccc([N+](=O)[O-])cc1.[Na+]

>  <result>
2.80

$$$$

// provenance: patent US20180320217A1
